Assay: qHTS assay to identify small molecule agonists of the estrogen related receptor signaling pathway with the pleiotropic PPARgamma coactivator (PGC) (AID 1224823)
Conditions: ERR/PGC reporter cell line, luciferase agonist mode; series mostly up to 46.1 µM
Experimental: National Center for Advancing Translational Sciences [NCATS] NIH Chemical Genomics Center [NCGC] U.S. Environmental Protection Agency [EPA] National Institutes of Environmental Health Sciences [NIEHS] National Toxicology Program [NTP] […] The PGC/ERR cells were dispensed at 2,000 cells/5 ul/well in 1536-well white plates using a Multidrop dispenser. […] After 30 min incubation at room temperature, the luminescence intensity in the plates was measured using a ViewLux plate reader.
Results filed as inconclusive are left out. Calls of active or inactive are those of the source. Calls follow the shape of the dose curve; as a rule, active = well fitted activation curve with a large enough effect in the repeat runs; inconclusive = weak or mixed curves; inactive = no such curve, though single readings can be large or run the other way.
Labels: label 1 = active, label 0 = inactive

Compound	Classification
Nc1ccc(-c2nc3ccc(-c4nc5ccc(N)cc5[nH]4)cc3[nH]2)cc1	label 0
CN1CCc2cccc3c2C1Cc1ccc(O)c(O)c1-3 (stereo unspecified)	label 0
Brc1c(Br)c(Br)c2n[nH]nc2c1Br	label 0
CN1Cc2sccc2C(c2ccc(O)c(O)c2)C1 (stereo unspecified)	label 0
C1CCc2nnnn2CC1	label 0
O=c1[nH]c2cc(C(F)(F)F)ccc2n1-c1cc(C(F)(F)F)ccc1O	label 0
O=C(c1ccc(Cl)cc1)N1CCN(c2ccc([N+](=O)[O-])c3ncccc23)CC1	label 0
CCCCCCC(=O)OC1CC(C)(C)NC(C)(C)C1	label 0
CC(C)Cc1ccc([C@H](C)C(=O)O)cc1	label 0
O=C(O)CCCC[C@@H]1CCSS1	label 0
CC(C)[C@H](NC(=O)OCc1ccccc1)C(=O)N[C@H](C=O)Cc1ccccc1	label 0
O=C(O)c1ccccc1Nc1cccc(OCc2ccc3ccccc3n2)c1	label 0
C=CCNc1ncnc2ccc(Br)cc12	label 0
CN1[C@@H](CC(=O)c2ccccc2)CCC[C@H]1C[C@H](O)c1ccccc1	label 0
NC(=O)C(=O)O	label 0
CC1(C)CCC=[N+]1[O-]	label 0
NC(CCCP(=O)(O)O)C(=O)O (stereo unspecified)	label 0
Nc1nc2ccc(Cl)cc2n2c(-c3ccccc3)nnc12	label 0
NC(=O)c1cccc(N)c1	label 0
OC[C@H]1O[C@@H](n2cnc3c(NC4CCCC4)ncnc32)[C@H](O)C1O (stereo partly specified)	label 1
O=C(O)/C(=C/c1c(C(=O)O)[nH]c2cc(Cl)cc(Cl)c12)c1ccccc1	label 0
CCc1ccc2c(-c3cccc(Cl)c3)nc(=O)n(CC)c2n1	label 0
CC(O)C(O)[C@H]1CNc2nc(N)[nH]c(=O)c2N1 (stereo partly specified)	label 0
Nc1ncnc2c1nc(Br)n2C1OC2COP(=O)(O)O[C@@H]2C1O (stereo partly specified)	label 0
CCOC(=O)C1=C(O)C(=O)N(Cc2ccccc2)C1	label 0
N#CC(=C(\N)Sc1ccccc1N)/C(C#N)=C(/N)Sc1ccccc1N	label 0
C=CCc1cccc(/C=N/NC(=O)CN2CCN(Cc3ccccc3)CC2)c1O	label 0
COC1(C2=NCCN2)COc2ccccc2O1 (stereo unspecified)	label 0
O=C(O)CCc1ccc(NCc2cccc(Oc3ccccc3)c2)cc1	label 0
COc1cc(C(O)CO)ccc1OS(=O)(=O)O (stereo unspecified)	label 0
O=c1onc2cnc3ccccc3n12	label 0

---

assay: qHTS RealTime-Glo MT Cell Viability Assay in HEK293 cells - 24 hour (AID 1224886); conditions: RealTime-Glo luminescence; series mostly up to 76.8 µM; also: nearly all actives have a fitted effect of over 50% in size
Records with an inconclusive call do not appear. Activity calls are given as the source filed them. Calls come from the whole dose curve; as a rule, active = well fitted cell-killing curve with a large enough effect in the repeat runs; inconclusive = weak or mixed curves, or effect the other way; inactive = flat fitted curve, though single readings scatter.
Classes used: active, inactive

Smiles str	Classification
NC(=O)c1ccccc1Cl	inactive
O=C(c1ccccc1)c1ccc(Cl)cc1	inactive
CCN(CC)c1ccc(N=Nc2ccccc2)cc1	active
C/C=C/C(=O)OCC(C)C	inactive
Nc1cc([N+](=O)[O-])ccc1Cl	inactive

---

Assay: qHTS assay to identify small molecule agonists of the estrogen related receptor (ERR) signaling pathway (AID 1224820)
Conditions: ERR reporter cell line, luciferase agonist mode; series mostly up to 46.1 µM
Description: National Center for Advancing Translational Sciences [NCATS] NIH Chemical Genomics Center [NCGC] U.S. Environmental Protection Agency [EPA] National Institutes of Environmental Health Sciences [NIEHS] National Toxicology Program [NTP] […] The ERR cells were dispensed at 2,000 cells/5 ul/well in 1536-well white plates using a Multidrop dispenser. […] After 30 min incubation at room temperature, the luminescence intensity in the plates was measured using a ViewLux plate reader.
Records with an inconclusive call do not appear. Activity calls are given as the source filed them. Calls follow the shape of the dose curve; as a rule, active = well fitted activation curve with a large enough effect in the repeat runs; inconclusive = weak or mixed curves; inactive = no such curve, though single readings can be large or run the other way.
Possible outcomes: active, inactive

Compound	Classification
O=c1cc(N2CCOCC2)oc2c(-c3ccccc3)cccc12	inactive
O=C1/C(=C/c2ccsc2)CC/C1=C\c1cccs1	active
Nc1ncnc2c1c(-c1ccc(Oc3ccccc3)cc1)cn2C1CCCC1	inactive
CCCN(CCc1ccccc1)C1CCc2c(O)cccc2C1 (centres undefined)	inactive
CC(=O)/C=C1\C(=O)N(C)c2ccccc21	inactive
Brc1c(Br)c(Br)c2[nH]cnc2c1Br	inactive
COc1ccc(/C=C2\COc3ccc(C)cc3C2=O)cc1O	active
C[C@@H](c1ncncc1F)[C@](O)(Cn1cncn1)c1ccc(F)cc1F	inactive
CCCCCCN(CCCCCC)C(=O)Cc1c(-c2ccc(F)cc2)[nH]c2ccccc12	inactive
CC(=O)NNC(=O)N1Cc2ccccc2Oc2ccc(Cl)cc21	inactive
Nc1nc(OCc2ccccc2)c2[nH]cnc2n1	inactive
COc1ccc(-c2cc(=O)c3c(O)c(OC)c(OC)cc3o2)cc1O	inactive
Oc1ccc(/C=C/c2ccc(/C=C/c3ccc(O)cc3)c(Br)c2)cc1	inactive
CN=C(N)NCCC[C@H](N)C(=O)O	inactive
O=C(O)c1ccccc1Nc1ccccc1	inactive
CC(=O)SCC[N+](C)(C)C	inactive
O=c1[nH]ccc2c(O)cccc12	inactive
Cc1ccc(S(=O)(=O)/C=C/C#N)cc1	active
CC(=O)O[C@H]1CC2(C)[C@@H](C[C@@H](O)[C@H]3[C@@]4(C)CC[C@@H](O)[C@@H](C)[C@@H]4CC[C@@]32C)C1=C(CCC=C(C)C)C(=O)O (some centres undefined)	inactive

---

target: Estrogen receptor (Homo sapiens) (UniProt P03372); experiment: qHTS assay to identify small molecule agonists of the estrogen receptor alpha (ER-alpha) signaling pathway using the BG1 cell line (AID 743079); conditions: BG1Luc4E2 cells, ERE-luciferase agonist, 22 h; series mostly up to 70.3 µM; also: nearly all actives have a fitted effect of over 20% in size
Sequence (P03372 whole entry, looked up): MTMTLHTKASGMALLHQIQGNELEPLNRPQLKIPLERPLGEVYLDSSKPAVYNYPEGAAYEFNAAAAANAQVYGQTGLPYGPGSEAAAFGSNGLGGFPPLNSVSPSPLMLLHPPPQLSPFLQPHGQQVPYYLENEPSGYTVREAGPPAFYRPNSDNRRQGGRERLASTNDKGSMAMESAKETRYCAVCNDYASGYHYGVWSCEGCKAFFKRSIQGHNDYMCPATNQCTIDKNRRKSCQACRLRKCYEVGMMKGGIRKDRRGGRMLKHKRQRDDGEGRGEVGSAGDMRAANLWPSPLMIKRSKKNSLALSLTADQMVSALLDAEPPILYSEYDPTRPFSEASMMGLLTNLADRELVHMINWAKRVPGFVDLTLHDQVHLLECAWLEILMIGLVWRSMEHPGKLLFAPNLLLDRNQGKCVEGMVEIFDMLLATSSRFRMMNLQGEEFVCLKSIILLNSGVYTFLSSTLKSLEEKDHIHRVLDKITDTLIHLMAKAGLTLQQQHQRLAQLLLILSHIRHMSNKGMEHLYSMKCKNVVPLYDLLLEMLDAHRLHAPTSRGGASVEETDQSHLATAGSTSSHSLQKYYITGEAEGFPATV
Results filed as inconclusive are left out. Activity calls are given as the source filed them. Calls come from the whole dose curve; as a rule, active = well fitted activation curve with a large enough effect in the repeat runs; inconclusive = weak or mixed curves, or effect the other way; inactive = no such curve, though single readings can be large or run the other way.
Classes used: active, inactive

Compound	Classification
CC(C)NCC1CCc2cc(CO)c([N+](=O)[O-])cc2N1 (stereo not given)	inactive
COC(=O)[C@H]1[C@H]2C[C@H]3c4[nH]c5ccccc5c4CCN3C[C@H]2CC[C@@H]1O	inactive
Nc1nc(NC2CC2)c2ncn([C@@H]3C=C[C@@H](CO)C3)c2n1	active
O=C1c2ccccc2C(=O)C1c1ccc(F)cc1	inactive
O=P(O)(O)C(O)(Cn1ccnc1)P(=O)(O)O	inactive
CC1(C)S[C@@H]2[C@H](NC(=O)[C@@H](NC(=O)N3CCNC3=O)c3ccccc3)C(=O)N2[C@H]1C(=O)O	inactive
CC12CCC(C1)C(C)(C)C2=O (stereo not given)	inactive
C(=C\c1ccncc1)/c1ccccc1	active
O=C(O)c1ccc(NC2OC[C@@H](O)[C@H](O)[C@H]2O)cc1 (stereo not given in full)	inactive
Cc1c(N)nc([C@H](CC(N)=O)NC[C@H](N)C(N)=O)nc1C(=O)N[C@H](C(=O)N[C@H](C)[C@@H](O)[C@H](C)C(=O)N[C@H](C(=O)NCCc1nc(-c2nc(C(=O)NCCCCN=C(N)N)cs2)cs1)[C@@H](C)O)[C@@H](O[C@@H]1O[C@@H](CO)[C@@H](O)[C@H](O)[C@@H]1O[C@H]1O[C@H](CO)[C@@H](O)[C@H](OC(N)=O)[C@@H]1O)c1cnc[nH]1	inactive

---

assay: qHTS assay to identify small molecule antagonists of the estrogen receptor beta (ER-beta) signaling pathway - cell viability counter screen (AID 1259382); settings: ER-beta-UAS-bla HEK293T viability, CellTiter-Glo luminescence, 16 h; series mostly up to 92.4 µM; also: nearly all actives have a fitted effect of over 55% in size; also: potency is read from the fitted curve at half-maximal effect
Results filed as inconclusive are left out. Activity calls are given as the source filed them. The call rests on the fitted dose curve; in most records, active means well fitted cell-killing curve with a large enough effect in the repeat runs; inconclusive means weak or mixed curves; inactive means flat fitted curve, though single readings scatter.
Recorded endpoint: Potency

Compound	Readout value
O=C(c1ccccc1)c1ccc(Cl)cc1	inactive
CCOc1nc(F)cc2nc(S(=O)(=O)Nc3c(Cl)cccc3C(=O)OC)nn12	inactive
CCC(O)CO (stereo not drawn)	inactive
CCN(CC)c1ccc(C=O)c(O)c1	inactive
O=c1cc[nH]cc1	inactive
CCNc1nc(NC(C)(C)C)nc(OC)n1	inactive
CN(C)CCOc1ccc(/C(=C(/CCCl)c2ccccc2)c2ccccc2)cc1	45.5 µM (active)
COC(=O)c1ccc([N+](=O)[O-])cc1	inactive
Cc1ccc(C2OC[C@@H]3OC(c4ccc(C)cc4)O[C@H]([C@H](O)CO)[C@@H]3O2)cc1 (stereo partly drawn)	inactive
CCN(CC)c1ccc(C=O)cc1	inactive
CCc1cccc(C)c1N(C(=O)CS(=O)(=O)O)C(C)COC (stereo not drawn)	inactive
CCCCCN=C(N)N/N=C/c1c[nH]c2ccc(OC)cc12	16.8 µM (active)
CCCCCCCCCCCCCCCCC(C(=O)O)C(O)(CC(=O)O)C(=O)O (stereo not drawn)	inactive
CCOC(=O)[C@H](O)[C@@H](O)C(=O)OCC	inactive
CC(CC(C)(C)C)CC(C)(C)CC(C)(C)C (stereo not drawn)	inactive
CC1=CC[C@@H](C(C)(C)O)CC1	inactive
CCN(CCC#N)c1ccc(N=Nc2ccc([N+](=O)[O-])cc2)cc1	inactive
CCOc1ccc([N+](=O)[O-])cc1	inactive
Oc1ccc(Cl)cc1C1CCCC1	inactive
Cc1ccc(Cl)c(N)c1Cl	inactive
C=C(C)C1CCC(C)CC1O (stereo not drawn)	inactive
C[C@H]1O[C@@H](O[C@H]2CC[C@@]3(C)[C@H](CC[C@@H]4[C@@H]3C[C@@H](O)[C@]3(C)[C@@H](C5=CC(=O)OC5)CC[C@]43O)C2)C[C@H](O)[C@@H]1O[C@H]1C[C@H](O)[C@H](O[C@H]2C[C@H](O)[C@H](O[C@@H]3O[C@H](CO)[C@@H](O)[C@H](O)[C@H]3O)[C@@H](C)O2)[C@@H](C)O1	0.188 µM (active)
CN1CCN(c2ccccc2/C=C2\SCCN(c3ccc(Cl)c(Cl)c3)C2=O)CC1	61.1 µM (active)
Cc1cccc(C)c1C	inactive
O=C(CCN1CCC(c2ccccc2)C1)c1ccc2c(c1)OCCO2 (stereo not drawn)	inactive
O=C1OC(O)C(C(Cl)Cl)=C1Cl (stereo not drawn)	inactive
COc1c(Br)cc(Br)c(C)c1Br	inactive
C1CCSC1	inactive
CCC(=O)OC/C=C(\C)CCC=C(C)C	inactive
[Cl][Dy]([Cl])[Cl]	inactive
CC(C)c1ccc2sc3ccccc3c(=O)c2c1	inactive
CN[C@H]1CC[C@@H](c2ccc(Cl)c(Cl)c2)c2ccc(S(N)(=O)=O)cc21	21.7 µM (active)
C1=CCCC1	inactive
